Here the recorded IC50 is given for each entry.
System: HT-29
Assay: Cytotoxicity against human HT-29 cells assessed as inhibition of cell viability incubated for 72 hrs by celltiter-blue cell viability assay
Type: functional, cell-based
Conditions: HT-29, 72 h
Endpoint: IC50

# Smiles Str, Result
rows = [
    ("C[C@]12CC[C@H]3[C@@H](C=CC4=CC(=O)[C@H](O)C[C@@]43C)[C@@H]1CC[C@@H]2C(=O)CO", "> 10 µM"),
    ("C[C@]12CC[C@H]3[C@@H](C=CC4=CC(=O)[C@H](O)C[C@@]43C)[C@@H]1CC[C@@H]2C(=O)O", "> 10 µM"),
    ("CO[C@H]1C[C@H](O[C@H]2CC[C@@]3(C)[C@@H](C2)C[C@@H]2O[C@]24[C@@H]3[C@H](O)C(=O)[C@]2(C)[C@H](C3=CC(=O)OC3)CC[C@]42O)O[C@@H](C)[C@@H]1O", "> 10 µM"),
]
